The measurements presented in this section are drawn from ChEMBL document CHEMBL1153961.

test: Selectivity index, ratio of IC50 for human A2780 cells to IC50 for Plasmodium falciparum Dd2; type: toxicity, cell-based; conditions: A2780 cells versus Plasmodium falciparum Dd2, read-out: Ratio IC50
readout-kind: selectivity ratio
Write the value as a bare number.

Requested read-out: selectivity ratio. Entry: CCC(C)C(=O)OC1(c2ccc3c(c2O)C(=O)c2c(cc(O)c(C(=O)OC)c2C)C3(OC(=O)C(C)CC)c2ccc3c(c2O)C(=O)c2c(cc(O)c(C(=O)OC)c2C)C3=O)c2cccc(O)c2C(=O)c2c1cc(O)c(C(=O)OC)c2C (stereo not given)
1.2

Requested read-out: selectivity ratio. Entry: CCC(C)C(=O)OC1(c2ccc3c(c2O)C(=O)c2c(cc(O)c(C(=O)OC)c2C)C3=O)c2cccc(O)c2C(=O)c2c1cc(O)c(C(=O)OC)c2C (stereo not given)
6.1

Requested read-out: selectivity ratio. Entry: COC(=O)c1c(O)cc2c(c1C)C(=O)c1c(ccc(C3(OC(=O)C(C)C)c4cccc(O)c4C(=O)c4c3cc(O)c(C(=O)OC)c4C)c1O)C2=O (stereo not given)
5.1

====

system: Plasmodium falciparum; assay: Antiplasmodial activity against chloroquine-resistant Plasmodium falciparum Dd2 by SYBR green assay; type: functional, organism-based
readout-kind: IC50 (µM)
Write the number in µM without appending the unit.

Requested read-out: IC50. Entry: CCC(C)C(=O)OC1(c2ccc3c(c2O)C(=O)c2c(cc(O)c(C(=O)OC)c2C)C3=O)c2cccc(O)c2C(=O)c2c1cc(O)c(C(=O)OC)c2C (stereo not given)
1.23

Requested read-out: IC50. Entry: CCC(C)C(=O)OC1(c2ccc3c(c2O)C(=O)c2c(cc(O)c(C(=O)OC)c2C)C3(OC(=O)C(C)CC)c2ccc3c(c2O)C(=O)c2c(cc(O)c(C(=O)OC)c2C)C3=O)c2cccc(O)c2C(=O)c2c1cc(O)c(C(=O)OC)c2C (stereo not given)
3.68

Requested read-out: IC50. Entry: `COC(=O)c1c(O)cc2c(c1C)C(=O)c1c(O)cccc1C2=O`
5.58

Requested read-out: IC50. Entry: COC(=O)c1c(O)cc2c(c1C)C(=O)c1c(ccc(C3(O)c4cccc(O)c4C(=O)c4c3cc(O)c(C(=O)OC)c4C)c1O)C2=O (stereo not given)
3.14

Requested read-out: IC50. Entry: COC(=O)c1c(O)cc2c(c1C)C(=O)c1c(ccc(C3(OC(=O)C(C)C)c4cccc(O)c4C(=O)c4c3cc(O)c(C(=O)OC)c4C)c1O)C2=O (stereo not given)
1.14
